Origin of the recorded values: paper PMC9133651

Target: native HDL (DGUC-HDL, apoA-I-containing lipoprotein particle) (Homo sapiens)
Assay Name: MST
Condition Label: MST: 100 nM AF647 oligo (90 C 2 min, cooled) mixed 1:1 with ligand in PBS, RT, 5 min; EMSA: 1 uM AF546 oligo, UV 254 nm 15 min on ice, 4-16% NativePAGE, 0.5x …
pKd: −log10 of the molar value.

| Seq String | pKd |
| --- | --- |
| GCAUUGGUGGUUCAGUGGUAGAAUUCUCGC / GCGAGAAUUCUACCACUGAACCACCAAUGC [dsRNA-tDR-GlyGCC-30] | 6.01 |
| GCAUUGGUGGUUCAGUGGUAGAAUUCUCGC [tDR-GlyGCC-30 (5'-tRH-30)] | 6.82 |
